- test method notes: Ratio of drug level in erythrocyte to plasma in Sprague-Dawley rat
- Assay type: ADME
- assay setup: erythrocytes and plasma

{"columns": ["compound string", "Kp"],
 "data": [
  ["CCC(C)(C)C(=O)O", 0.649]
]}

* * *

- test method notes: Stability in human hepatocytes assessed as unchanged compound at 50 uM measured after 4 hrs
- Format: ADME, cell-based, Hepatocyte
- assay setup: read-out: Stabilty
result type: remaining at 4 h, 50 µM (%)

{"columns": ["compound string", "recorded number"],
 "data": [
  ["CCC(C)(C)C(=O)O", 88]
]}

* * *

- target under test: Organic anion transporter 3 (Homo sapiens, UniProt Q8TCC7)
- Sequence (Q8TCC7 whole entry): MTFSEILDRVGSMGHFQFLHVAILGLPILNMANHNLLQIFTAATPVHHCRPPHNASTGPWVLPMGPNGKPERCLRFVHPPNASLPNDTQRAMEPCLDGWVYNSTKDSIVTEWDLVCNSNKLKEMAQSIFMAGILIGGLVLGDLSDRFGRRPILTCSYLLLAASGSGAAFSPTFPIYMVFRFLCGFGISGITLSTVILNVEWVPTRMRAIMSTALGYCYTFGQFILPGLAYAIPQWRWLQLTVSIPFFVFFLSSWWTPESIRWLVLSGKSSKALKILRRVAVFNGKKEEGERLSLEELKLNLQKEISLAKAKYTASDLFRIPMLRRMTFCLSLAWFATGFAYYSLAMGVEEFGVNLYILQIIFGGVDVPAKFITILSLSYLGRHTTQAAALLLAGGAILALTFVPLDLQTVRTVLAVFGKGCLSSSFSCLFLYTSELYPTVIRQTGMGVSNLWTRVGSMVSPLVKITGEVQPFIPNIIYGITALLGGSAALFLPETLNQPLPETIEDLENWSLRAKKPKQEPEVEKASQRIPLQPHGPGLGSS
pIC50: −log10 of the molar value.

{"columns": ["compound string", "pIC50"],
 "data": [
  ["CCC(C)(C)C(=O)O", 2.45]
]}
